Assay: Example 18 Part 2: multiple dose PK (20 mg QID) of 3,4-DAP and 3-N-acetyl metabolite in slow and fast acetylators
Assay type: in vivo, human
Conditions: both sexes, human, plasma, oral, 20 mg, Day 1, Dose 4, slow acetylators, 20 mg QID; read-out: Mean AUC0-4
parameter measured: AUC(0-t) (ng·h/mL)
One number for each entry, in ng·h/mL.

Name the recorded AUC(0-t) for `Nc1ccncc1N` .
145

====

Test: Example 18 Part 2: multiple dose PK (20 mg QID) of 3,4-DAP and 3-N-acetyl metabolite in slow and fast acetylators
Type: in vivo, human
Settings: both sexes, human, plasma, oral, 20 mg, Day 3, Dose 3, fast acetylators, 20 mg QID; read-out: Mean Vz/F
parameter measured: Vd/F (L)
Answers are plain numbers, in L.

Name the recorded Vd/F for `Nc1ccncc1N` .
2200

====

Assay: Example 18 Part 2: multiple dose PK (20 mg QID) of 3,4-DAP and 3-N-acetyl metabolite in slow and fast acetylators
Assay type: in vivo, human
Conditions: both sexes, human, plasma, oral, 20 mg, Day 1, slow acetylators, Dose 4 interval, 20 mg QID, arith. mean; read-out: AUC0-4
parameter measured: AUC(0-t) (ng·h/mL)
Give bare numbers, in ng·h/mL.

Name the recorded AUC(0-t) for CC(=O)Nc1cnccc1N [3-N-acetyl amifampridine, N-(4-aminopyridin-3-yl)acetamide] .
769

====

Assay: Example 18 Part 2: multiple dose PK (20 mg QID) of 3,4-DAP and 3-N-acetyl metabolite in slow and fast acetylators
Assay type: in vivo, human
Conditions: both sexes, human, plasma, oral, 20 mg, Day 1, fast acetylators, Dose 2 interval, 20 mg QID, arith. mean; read-out: Tmax
parameter measured: Tmax (h)
One number for each entry, in h.

Name the recorded Tmax for CC(=O)Nc1cnccc1N [3-N-acetyl amifampridine, N-(4-aminopyridin-3-yl)acetamide] .
1.5
